Each recorded value in this set is attributed to patent US11833160B2.

Record set of pIC50 for target or system human HDAC8 (Homo sapiens, UniProt Q9BY41).
Note: pIC50 values are expressed as the negative base-10 logarithm of concentration in M.

What measured pIC50 goes with NCc1ccc(C(=O)NO)cc1 [4-(aminomethyl)-N-hydroxybenzamide, reference compound] ?
4.87

Same question, C[C@H](CCC(=O)NCC(=O)NCc1ccc(C(=O)NO)cc1)[C@H]1CC[C@H]2[C@@H]3[C@@H](O)C[C@@H]4C[C@H](O)CC[C@]4(C)[C@H]3CC[C@]12C [Ib] this time
6.21

Same question, C[C@H](CCC(=O)NCc1ccc(C(=O)NO)cc1)[C@H]1CC[C@H]2[C@@H]3[C@@H](O)C[C@@H]4C[C@H](O)CC[C@]4(C)[C@H]3CC[C@]12C [Compound Ia] this time
6.05

====

Record set of pIC50 for target or system human HDAC2 (Homo sapiens).
Note: pIC50 values are expressed as the negative base-10 logarithm of concentration in M.

What measured pIC50 goes with `C[C@H](CCC(=O)NCc1ccc(C(=O)NO)cc1)[C@H]1CC[C@H]2[C@@H]3[C@@H](O)C[C@@H]4C[C@H](O)CC[C@]4(C)[C@H]3CC[C@]12C` ?
4.73

Same question, `C[C@H](CCC(=O)NCC(=O)NCc1ccc(C(=O)NO)cc1)[C@H]1CC[C@H]2[C@@H]3[C@@H](O)C[C@@H]4C[C@H](O)CC[C@]4(C)[C@H]3CC[C@]12C` this time
4.88

Same question, `C[C@H](CCC(=O)NCc1ccc(C(=O)Nc2ccccc2N)cc1)[C@H]1CC[C@H]2[C@@H]3[C@@H](O)C[C@@H]4C[C@H](O)CC[C@]4(C)[C@H]3CC[C@]12C` this time
6.29

====

Record set of pIC50 for target or system human HDAC7 (Homo sapiens).
Note: pIC50 values are expressed as the negative base-10 logarithm of concentration in M.

What measured pIC50 goes with `C[C@H](CCC(=O)NCC(=O)NCc1ccc(C(=O)NO)cc1)[C@H]1CC[C@H]2[C@@H]3[C@@H](O)C[C@@H]4C[C@H](O)CC[C@]4(C)[C@H]3CC[C@]12C` ?
4.75

Same question, NCc1ccc(C(=O)NO)cc1 [4-(aminomethyl)-N-hydroxybenzamide, reference compound] this time
4.83

Same question, `C[C@H](CCC(=O)NCc1ccc(C(=O)NO)cc1)[C@H]1CC[C@H]2[C@@H]3[C@@H](O)C[C@@H]4C[C@H](O)CC[C@]4(C)[C@H]3CC[C@]12C` this time
5.13

====

- studySystem: human HDAC5 (Homo sapiens)
- Sequence (Q9UQL6 1-1123 isoform Q9UQL6-3): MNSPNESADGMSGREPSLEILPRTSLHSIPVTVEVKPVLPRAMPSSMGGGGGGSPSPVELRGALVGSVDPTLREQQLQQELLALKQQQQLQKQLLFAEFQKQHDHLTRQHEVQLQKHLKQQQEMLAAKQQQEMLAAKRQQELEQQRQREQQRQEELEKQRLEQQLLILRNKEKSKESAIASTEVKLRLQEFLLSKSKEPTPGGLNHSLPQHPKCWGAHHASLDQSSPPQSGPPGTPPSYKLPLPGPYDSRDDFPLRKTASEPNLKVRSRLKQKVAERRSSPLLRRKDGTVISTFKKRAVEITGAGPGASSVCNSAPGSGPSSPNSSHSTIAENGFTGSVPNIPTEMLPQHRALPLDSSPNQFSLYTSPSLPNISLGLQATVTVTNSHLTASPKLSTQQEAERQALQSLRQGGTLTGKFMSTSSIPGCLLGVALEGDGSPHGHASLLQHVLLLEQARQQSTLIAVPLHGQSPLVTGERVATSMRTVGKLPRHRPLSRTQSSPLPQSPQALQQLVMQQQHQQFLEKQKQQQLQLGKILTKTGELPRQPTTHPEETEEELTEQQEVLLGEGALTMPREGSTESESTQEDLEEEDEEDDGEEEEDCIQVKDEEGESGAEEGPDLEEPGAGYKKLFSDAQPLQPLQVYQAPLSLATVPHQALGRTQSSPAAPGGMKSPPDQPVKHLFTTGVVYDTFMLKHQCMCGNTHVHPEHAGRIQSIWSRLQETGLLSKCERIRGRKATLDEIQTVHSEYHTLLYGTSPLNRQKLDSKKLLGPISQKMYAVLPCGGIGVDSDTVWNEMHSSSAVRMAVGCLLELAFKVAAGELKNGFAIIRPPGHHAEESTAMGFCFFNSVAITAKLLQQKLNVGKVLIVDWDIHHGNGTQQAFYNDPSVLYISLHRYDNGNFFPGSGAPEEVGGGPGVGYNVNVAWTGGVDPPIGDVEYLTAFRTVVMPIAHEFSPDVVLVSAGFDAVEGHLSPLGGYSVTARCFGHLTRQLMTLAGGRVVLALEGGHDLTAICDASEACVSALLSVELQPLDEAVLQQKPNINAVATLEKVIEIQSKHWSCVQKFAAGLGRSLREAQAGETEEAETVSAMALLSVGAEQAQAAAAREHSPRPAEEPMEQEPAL
Give IC50 for every item shown.

What measured IC50 goes with NCc1ccc(C(=O)NO)cc1 [4-(aminomethyl)-N-hydroxybenzamide, reference compound] ?
435 µM

Same question, C[C@H](CCC(=O)NCc1ccc(C(=O)NO)cc1)[C@H]1CC[C@H]2[C@@H]3[C@@H](O)C[C@@H]4C[C@H](O)CC[C@]4(C)[C@H]3CC[C@]12C [Compound Ia] this time
14.1 µM

====

Give melting point for every item shown.

What measured melting point goes with `C[C@H](CCC(=O)NCCCC(=O)NO)[C@H]1CC[C@H]2[C@@H]3[C@@H](O)C[C@@H]4C[C@H](O)CC[C@]4(C)[C@H]3CC[C@]12C` ?
165 to 167 °C

Same question, `C[C@H](CCC(=O)NCCS)[C@H]1CC[C@H]2[C@@H]3[C@@H](O)C[C@@H]4C[C@H](O)CC[C@]4(C)[C@H]3CC[C@]12C` this time
116 to 117 °C

Same question, C[C@H](CCC(=O)NCc1ccc(C(=O)Nc2ccccc2N)cc1)[C@H]1CC[C@H]2[C@@H]3[C@@H](O)C[C@@H]4C[C@H](O)CC[C@]4(C)[C@H]3CC[C@]12C [Ii] this time
168 to 170 °C
